Measured kon values are reported for all entries that follow.
Target: human Izumo1_(22-254), wild type (human, UniProt Q8IYV9-1 22-254)
Sequence (Q8IYV9 22-254): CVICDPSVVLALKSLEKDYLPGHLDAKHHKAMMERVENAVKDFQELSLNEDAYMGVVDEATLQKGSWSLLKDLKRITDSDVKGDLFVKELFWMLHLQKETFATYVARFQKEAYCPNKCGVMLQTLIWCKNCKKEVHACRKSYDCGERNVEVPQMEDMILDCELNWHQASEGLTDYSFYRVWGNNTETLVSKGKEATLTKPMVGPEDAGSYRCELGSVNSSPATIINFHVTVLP
Assay: BLI
Don't forget the unit after the value.

W62A Juno_(20-228) (domain or fragment, human, UniProt A6ND01-1 20-228, looked up, biotinylated with the EZ link sulfo-NHS-LC-biotinylation kit (BLI)) GDELLNICMNAKHHKRVPSPEDKLYEECIPWKDNACCTLTTSAEAHLDVSPLYNFSLFHCGLLMPGCRKHFIQAICFYECSPNLGPWIQPVGSLGWEVAPSGQGERVVNVPLCQEDCEEWWEDCRMSYTCKSNWRGGWDWSQGKNRCPKGAQCLPFSHYFPTPADLCEKTWSNSFKASPERRNSGRCLQKWFEPAQGNPNVAVARLFAS = 114000 M⁻¹ s⁻¹
E45K Juno_(20-228) (domain or fragment, human, UniProt A6ND01-1 20-228, looked up, biotinylated with the EZ link sulfo-NHS-LC-biotinylation kit (in the BLI assay only)) GDELLNICMNAKHHKRVPSPEDKLYKECIPWKDNACCTLTTSWEAHLDVSPLYNFSLFHCGLLMPGCRKHFIQAICFYECSPNLGPWIQPVGSLGWEVAPSGQGERVVNVPLCQEDCEEWWEDCRMSYTCKSNWRGGWDWSQGKNRCPKGAQCLPFSHYFPTPADLCEKTWSNSFKASPERRNSGRCLQKWFEPAQGNPNVAVARLFAS = 23000 M⁻¹ s⁻¹

# context switch: different binder, same kon
### Prompt Name the recorded kon for K163A Juno_(20-228) (domain or fragment, human, UniProt A6ND01-1 20-228, looked up, biotinylated with the EZ link sulfo-NHS-LC-biotinylation kit (BLI)) GDELLNICMNAKHHKRVPSPEDKLYEECIPWKDNACCTLTTSWEAHLDVSPLYNFSLFHCGLLMPGCRKHFIQAICFYECSPNLGPWIQPVGSLGWEVAPSGQGERVVNVPLCQEDCEEWWEDCRMSYTCKSNWRGGWDWSQGANRCPKGAQCLPFSHYFPTPADLCEKTWSNSFKASPERRNSGRCLQKWFEPAQGNPNVAVARLFAS .
### Response 138000 M⁻¹ s⁻¹

These measurements were taken from paper PMC5319863.
